Hello, the source for this data is patent US20230057987A1, in case you need it.

We begin with a simple list: items and their reported dextramer-positive events.
Target: T1, CT45 (CT45A1, A2, A3, A5 to A10); CT45-IP peptide on HLA-A*02:01 (human)
T1 peptide: KIFEMLEGV
Assay: CT45-IP-HLA-A*02 dextramer on T cells with TCR mRNA; TCR found by tetramer sorting; full-length, on cells
measure.name: dextramer-positive events (%)

[[record]]
binder = "TCR-8 (TCR, V domains shown) Valpha: QKVTQAQTEISVVEKEDVTLDCVYETRDTTYYLFWYKQPPSGELVFLIRRNSFDEQNEISGRYSWNFQKSTSSFNFTITASQVVDSAVYFCALSGRGSGTYKYIFGTGTRLKVLA Vbeta: GVIQSPRHLIKEKRETATLKCYPIPRHDTVYWYQQGPGQDPQFLISFYEKMQSDKGSIPDRFSAQQFSDYHSELNMSSLELGDSALYFCASSAGTSYNEQFFGPGTRLTVL"
unit_info = "%"
assay_result = 60.7

[[record]]
binder = "TCR-2 (TCR, V domains shown) Valpha: QKITQTQPGMFVQEKEAVTLDCTYDTSDQSYGLFWYKQPSSGEMIFLIYQGSYDEQNATEGRYSLNFQKARKSANLVISASQLGDSAMYFCAMREGSDAGGTSYGKLTFGQGTILTVHP Vbeta: GVIQSPRHLIKEKRETATLKCYPIPRHDTVYWYQQGPGQDPQFLISFYEKMQSDKGSIPDRFSAQQFSDYHSELNMSSLELGDSALYFCASSPSTGRLNTEAFFGQGTRLTVV"
unit_info = "%"
assay_result = 39.1

[[record]]
binder = "TCR-14 (TCR, V domains shown) Valpha: QKITQTQPGMFVQEKEAVTLDCTYDTSDQSYGLFWYKQPSSGEMIFLIYQGSYDEQNATEGRYSLNFQKARKSANLVISASQLGDSAMYFCAINGLPGSARQLTFGSGTQLTVLP Vbeta: GVAQSPRYKIIEKRQSVAFWCNPISGHATLYWYQQILGQGPKLLIQFQNNGVVDDSQLPKDRFSAERLKGVDSTLKIQPAKLEDSAVYLCASSRFVATGTSPLHFGNGTRLTVT"
unit_info = "%"
assay_result = 11.6

[[record]]
binder = "TCR-4 (TCR, V domains shown) Valpha: QSVAQPEDQVNVAEGNPLTVKCTYSVSGNPYLFWYVQYPNRGLQFLLKYITGDNLVKGSYGFEAEFNKSQTSFHLKKPSALVSDSALYFCAAPRDDKIIFGKGTRLHILP Vbeta: GVTQTPKFRVLKTGQSMTLLCAQDMNHEYMYWYRQDPGMGLRLIHYSVGEGTTAKGEVPDGYNVSRLKKQNFLLGLESAAPSQTSVYFCASSYLRTGGNEQFFGPGTRLTVL"
unit_info = "%"
assay_result = 39.1

[[record]]
binder = "TCR-7 (TCR, V domains shown) Valpha: QTVTQSQPEMSVQEAETVTLSCTYDTSESDYYLFWYKQPPSRQMILVIRQEAYKQQNATENRFSVNFQKAAKSFSLKISDSQLGDAAMYFCTFRYGGATNKLIFGTGTLLAVQP Vbeta: GVIQSPRHLIKEKRETATLKCYPIPRHDTVYWYQQGPGQDPQFLISFYEKMQSDKGSIPDRFSAQQFSDYHSELNMSSLELGDSALYFCASRGGWAETPDTQYFGPGTRLTVL"
unit_info = "%"
assay_result = 53.3

